Tested on: NCI-H522 lung
RUN DESCRIPTION: NCI-60 one-dose screen, 48 h
RUN CONDITIONS: 10 µM unless noted
This is part of a sample that, as a whole, favours compounds with a hit. Of some 83,000 tested, about 20% had one in any assay. Active and inactive are the calls of the source. How the source made its calls: active means growth percent below 10; inactive means the rest.
Valid outcomes are listed here; reply with one: active, inactive

Would you please look over these solved cases?
{"columns": ["COMPOUND", "DISCRETE LABEL"],
 "data": [
  ["CSc1nc(N)c(N=Nc2ccc(S(=O)(=O)Nc3nnc(C)s3)cc2)c(=O)[nH]1", "inactive"],
  ["COc1ccc(/C=C(/C2=NCCN2)n2ccc3ccccc32)cc1", "inactive"],
  ["NC1=NC(=O)NC1(c1ccccc1)c1ccccc1", "inactive"],
  ["CCN(CC)CCCNCc1cc(-c2ccccc2)nc2ccccc12", "inactive"]
]}

Would you mind telling me which call this test gave "COc1ncc(-c2ccc3nccc(C#CCCCCC(=O)NO)c3c2)cc1NS(=O)(=O)c1ccc(F)cc1F" ?
active

These measurements were taken from PubChem BioAssay (NCI).
